- Test Details: chemical genetic growth profiling, strain panel (AID 1159580);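 also: tested at 20 µM; growth read once vehicle control cultures reached saturation at 30 °C; 1 = growth at the plate median or of vehicle wells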
- Stated Conditions: S. cerevisiae deletion strains, growth OD, locus YJL129C, strain trk1, stronger effect = lower value
Among all 5,500 compounds or so, about 2,000 (36%) were called active. Not shown: some 18% with an inconclusive outcome. This is one part of the list.
Classify: fulfilled when normalized growth is strictly less than 1; not fulfilled when normalized growth is not.

Compound: CC(CC(C(N)=O)(c1ccccc1)c1ccccc1)N(C)C (stereo unspecified)
Label Class: fulfilled

# input for lookup
Exercise: Check if normalized growth falls below 1 for CNC(C)C(O)c1ccccc1 (stereo unspecified) .
Solution: not fulfilled

* * *

- Test Details: chemical genetic growth profiling, strain panel (AID 1159580);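 also: tested at 20 µM; growth read once vehicle control cultures reached saturation at 30 °C; 1 = growth at the plate median or of vehicle wells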
- Stated Conditions: S. cerevisiae deletion strains, growth OD, locus YER167W, strain BCK2, stronger effect = lower value
Among all 5,500 compounds or so, about 2,000 (36%) were called active. Inconclusive results (about 18%) are left out. The list shows a part of the results.
Measurement Name: normalized growth
One number for each entry.

Compound: CC(=O)OC(C)C[N+](C)(C)C (stereo unspecified)
normalized growth: 1.02
//
Compound: CCOC(=O)NC1=C(C2CC2)C(=O)C(NC(=O)OCC)=C(C2CC2)C1=O
normalized growth: 0.98
//
Compound: NC(CSCSCC(N)C(=O)O)C(=O)O (stereo unspecified)
normalized growth: 1

// batch mode: one normalized growth value per listed entry
1. NC(=NCCC[C@H](N)C(=O)O)N[N+](=O)[O-]
2. CCCCC1C(=O)N(c2ccccc2)N(c2ccc(O)cc2)C1=O (stereo unspecified)
3. CC1CCC2(OC1)OC1CC3C4CC[C@H]5C[C@@H](O)CC[C@]5(C)C4CC(=O)[C@]3(C)C1C2C (stereo partly specified)

Solution:
1: 0.998; 2: 0.987; 3: 1.01
